Measured IC50, listed per entry.
- Assay summary: cells
- Assay type: functional
Calls of active or inactive are those of the source. How the calls were made is not given here.

- Chemical structure: "O=C(CCN1CCN(C/C=C/c2ccccc2)CC1)Nc1ccc(Cl)cc1"
  IC50: "34.6 µM (active)"
- Chemical structure: "COc1cc2ccccc2cc1C(=O)Nc1sc2c(c1C(N)=O)CCN(C(C)C)C2"
  IC50: "11.9 µM (active)"
- Chemical structure: "COCCSc1nnc(NC(=O)CCS(=O)(=O)Cc2ccccc2)s1"
  IC50: "45.5 µM (active)"
- Chemical structure: "CCCCCn1c(=O)c(C(=O)Nc2nc(CC(=O)OCC)cs2)c(O)c2ccccc21"
  IC50: "2.79 µM (active)"

Cited source: ChEMBL document CHEMBL1201862
